Below, each entry is listed with its recorded viability at 28.5 h, 1 µM.
assay: in vitro; parameters: Viability of infected HeLa host cells, resazurin conversion, bulk resorufin fluorescence relative to DMSO; settings: human, hela cells; bulk resorufin, mean of 2
API: value field is a number in %; no unit string.

The following compounds have reported results that may help.
CCC(CN1CCCC1)NC(=O)Cc1ccc(OC)c(C)c1 (stereo not drawn) = 108
CCCCC(=O)/N=C(\N)Nc1nc2ccccc2o1 = 106
CCn1c2c(c3cc(S(=O)(=O)c4ccc(C(F)(F)F)cc4)ccc31)CCNCC2 [CBK018453C] = 94.5
Cc1ccc(OCC(O)CN2CCN(c3nc(-c4ccccc4)ns3)CC2)c([N+](=O)[O-])c1 (stereo not drawn) = 104
O=C(O)c1[nH]c2ccccc2c1C(c1ccsc1)c1c(C(=O)O)[nH]c2ccccc12 = 99.3
COc1ccc(Br)cc1C1CC(=O)Nc2c(-c3cccc(F)c3)csc21 (stereo not drawn) = 96.8
CC(Oc1cccc2ccccc12)C(=S)N(C)c1ccccc1 (stereo not drawn) = 113
COc1ccc([C@@H]2CN(C)C[C@H]2NC(=O)Nc2ccc(Cl)c(Cl)c2)cc1OC = 92.3

Now take the following compound into account.
I'd like to know its viability at 28.5 h, 1 µM. The compound in question is `COc1cc2c(cc1CNC(=O)c1cn(CCN)nn1)CCC2`
97.3
